Reference for the values: ChEMBL document CHEMBL1127014

TGT: GABA-A receptor; anion channel
TEST METHOD NOTES: Binding affinity for Diazepam-Sensitive fraction of GABA-A benzodiazepine receptors
Type: protein-complex assay, Rattus norvegicus
// boundary case: Ki equal to 10 nM maps to False; strictly smaller maps to True

>  <STRUCTURE>
CN(C)N=Nc1ccc2c(c1)C(=O)N(C)Cc1c(C(=O)OC(C)(C)C)ncn1-2

>  <CLASS LABEL>
False

$$$$
>  <STRUCTURE>
CN1Cc2c(C(=O)OCC3CC3)ncn2-c2ccc(Cl)cc2C1=O

>  <CLASS LABEL>
True

$$$$
>  <STRUCTURE>
CN1Cc2c(C(=O)OC(C)(C)C)ncn2-c2ccc(Br)cc2C1=O

>  <CLASS LABEL>
False

$$$$
>  <STRUCTURE>
CN1Cc2c(C(=O)OC(C)(C)C)ncn2-c2ccsc2C1=O

>  <CLASS LABEL>
True

$$$$
>  <STRUCTURE>
CN1Cc2c(C(=O)OC(C)(C)C)ncn2-c2ccc([N+](=O)[O-])cc2C1=O

>  <CLASS LABEL>
False

$$$$
>  <STRUCTURE>
COC(=O)c1ncn2c1CN(C)C(=O)c1ccccc1-2

>  <CLASS LABEL>
True

$$$$
>  <STRUCTURE>
CCOC(=O)c1ncn2c1CN(C)C(=O)c1ccccc1-2

>  <CLASS LABEL>
True

$$$$
>  <STRUCTURE>
CCOC(=O)c1ncn2c1CN(C)C(=O)c1cc(Cl)ccc1-2

>  <CLASS LABEL>
True

$$$$

Lab note: next compound to report on.
Exercise: Given "CN1Cc2c(C(=O)OCC(C)(C)C)ncn2-c2ccc(Cl)cc2C1=O" , is recorded Ki strictly lower than 10 nM?
Key: False
